# thermal shift delta Tm per entry
# System: LOC_OS06G22820-cb001;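 note: purified Escherichia coli-expressed rice kinase domain construct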
# Sequence (as listed by the source): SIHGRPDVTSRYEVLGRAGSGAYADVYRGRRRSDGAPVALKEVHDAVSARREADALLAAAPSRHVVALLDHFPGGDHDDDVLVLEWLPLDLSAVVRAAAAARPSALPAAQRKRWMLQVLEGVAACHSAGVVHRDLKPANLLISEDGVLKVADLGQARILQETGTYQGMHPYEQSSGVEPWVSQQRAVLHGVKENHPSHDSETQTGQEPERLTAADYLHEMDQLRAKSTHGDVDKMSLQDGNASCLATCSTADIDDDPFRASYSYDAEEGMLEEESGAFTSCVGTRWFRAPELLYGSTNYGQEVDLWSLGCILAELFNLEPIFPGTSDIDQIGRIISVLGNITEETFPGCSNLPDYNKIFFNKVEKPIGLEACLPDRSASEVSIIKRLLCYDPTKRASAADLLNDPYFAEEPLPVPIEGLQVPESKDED
# Experimental details: thermal shift delta Tm vs DMSO control; higher = stronger stabilization (binding)
# Measurement parameters: 12.5 µM; protein concentration 2 µM
Give just the number in °C; leave the unit off.

// solved cases for thermal shift delta Tm follow
COc1cc2nccc(Oc3ccc(NC(=O)Nc4cc(C)on4)c(Cl)c3)c2cc1OC [Tivozanib (AV-951)] | 0.55
CCCCCCCCCCCCCCCCn1cc[n+](Cc2ccccc2)c1C | -0.65
Cc1cc(Nc2nc(N[C@@H](C)c3ncc(F)cn3)ncc2Cl)[nH]n1 | 0.49

Asked: Which thermal shift delta Tm is reported for this compound? Nc1ccc(C(=O)Nc2cccc(-c3nc(N4CCOCC4)c4oc5ncccc5c4n3)c2)cn1
Given back: 0.39

Asked: Which thermal shift delta Tm is reported for this compound? Cc1cc(Nc2nc(N[C@@H](C)c3ccc(F)cc3)c(C#N)cc2F)n[nH]1
Given back: -0.41
